What % inhibition Apol 40' was measured for each of the following?
Target: UniProt Q8ILY1
Sequence (Q8ILY1 entry or part of it): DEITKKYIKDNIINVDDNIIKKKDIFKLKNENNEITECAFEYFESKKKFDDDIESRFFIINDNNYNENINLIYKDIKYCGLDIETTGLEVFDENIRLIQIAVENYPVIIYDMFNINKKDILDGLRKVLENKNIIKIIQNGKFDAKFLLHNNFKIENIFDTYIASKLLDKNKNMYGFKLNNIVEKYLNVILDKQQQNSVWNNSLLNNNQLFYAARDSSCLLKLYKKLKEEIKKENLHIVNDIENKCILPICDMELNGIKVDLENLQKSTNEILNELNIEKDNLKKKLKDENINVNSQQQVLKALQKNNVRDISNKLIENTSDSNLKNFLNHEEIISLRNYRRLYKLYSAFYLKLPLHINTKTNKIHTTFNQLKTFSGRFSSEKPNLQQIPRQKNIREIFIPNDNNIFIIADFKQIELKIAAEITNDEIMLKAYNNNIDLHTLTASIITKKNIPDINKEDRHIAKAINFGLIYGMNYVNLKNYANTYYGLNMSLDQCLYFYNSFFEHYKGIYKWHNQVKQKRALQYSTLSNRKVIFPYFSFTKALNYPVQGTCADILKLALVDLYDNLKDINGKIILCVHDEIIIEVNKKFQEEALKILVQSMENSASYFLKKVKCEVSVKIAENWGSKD
Assay: Fluorescence-based high-throughput DNA polymerase assay (molecular beacon), primary screen and dose-response;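 note: compound concentration given in µM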
Format: biochemical
Details: DRC-2; 40'; conc 2.5
Answers are plain numbers, in %.

Known results for compounds:
O=C1Nc2ccc(I)cc2C1=Cc1cc(Br)c(O)c(Br)c1 : 0.385
Cc1ccccc1NC(=O)Cn1ccc2c(=O)[nH]ccc21 [Molecule 50, O=C(Cn1ccc2c1cc[nH]c2=O)Nc1ccc(cc1)C] : 5
Cc1ccc(N2NC(=O)/C(=C\c3ccc(O)c([N+](=O)[O-])c3)C2=O)cc1Cl : 11

Item "COC(=O)c1sc(-c2ccc(C(C)(C)C)cc2)cc1NC(=O)CCC(=O)O" ; assay system UniProt Q8ILY1; % inhibition Apol 40' reported as 11

---

For each of the compounds below, state its % inhibition T4 180' 20.
Biological target: bacteriophage T4 DNA polymerase (Enterobacteria phage T4, UniProt P04415)
Construct: made in house
Sequence (P04415 whole entry): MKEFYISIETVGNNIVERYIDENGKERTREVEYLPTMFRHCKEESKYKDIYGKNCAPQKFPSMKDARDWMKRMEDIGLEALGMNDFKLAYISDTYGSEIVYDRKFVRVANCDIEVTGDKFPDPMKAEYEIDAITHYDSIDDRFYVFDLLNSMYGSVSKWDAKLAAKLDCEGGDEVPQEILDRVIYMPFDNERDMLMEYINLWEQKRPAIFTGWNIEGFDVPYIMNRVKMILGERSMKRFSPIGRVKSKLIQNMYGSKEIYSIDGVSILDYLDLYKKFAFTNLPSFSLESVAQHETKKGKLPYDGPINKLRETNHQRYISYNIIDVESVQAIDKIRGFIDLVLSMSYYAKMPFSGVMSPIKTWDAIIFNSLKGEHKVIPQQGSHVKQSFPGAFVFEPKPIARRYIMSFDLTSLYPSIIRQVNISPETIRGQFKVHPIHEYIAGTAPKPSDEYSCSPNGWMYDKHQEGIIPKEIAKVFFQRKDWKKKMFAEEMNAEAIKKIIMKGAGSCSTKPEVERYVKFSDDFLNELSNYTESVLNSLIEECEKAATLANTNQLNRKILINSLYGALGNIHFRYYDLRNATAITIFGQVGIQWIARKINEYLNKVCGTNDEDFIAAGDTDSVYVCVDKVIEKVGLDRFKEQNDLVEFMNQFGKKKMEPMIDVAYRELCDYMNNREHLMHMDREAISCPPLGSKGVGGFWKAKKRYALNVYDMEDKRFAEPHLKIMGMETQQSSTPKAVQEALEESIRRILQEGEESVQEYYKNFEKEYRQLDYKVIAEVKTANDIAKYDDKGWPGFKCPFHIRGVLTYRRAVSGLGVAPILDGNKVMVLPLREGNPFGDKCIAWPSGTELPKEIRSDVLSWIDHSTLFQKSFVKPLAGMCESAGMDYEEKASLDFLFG
Test: Counter-screen against bacteriophage T4 DNA polymerase
Type: biochemical
Details: DRC-2; read at 180'; concentration 20
Answers are plain numbers, in %.

These recorded examples may help you get a feel for the data.
Cc1cccc(-c2noc(C(=O)NNC(=O)C(Cl)(Cl)Cl)n2)c1 [KU0266208] : -11
Cc1nc(C)c2c(n1)N(CC1CCCCC1)C(=O)CC2 [KU0218606] : 2
O=C(c1ccccc1)N1CCc2c(nc3cc(-c4ccccc4)[nH]n3c2=O)C1 [Molecule 30] : -19
COc1ccccc1CC(=O)N1CCc2c(nc3cc(-c4ccccc4Cl)[nH]n3c2=O)C1 [Molecule 49] : -39
CC(=O)Nc1cc(C(=O)c2cccs2)nn(-c2ccc(Cl)cc2)c1=O [KU0267905] : -8

Below are 6 compounds. Give each one its % inhibition T4 180' 20.
1. O=C(CCc1csc(NC(=O)Nc2ccccc2)n1)Nc1nc2ccccc2s1 [KU0177354]
2. Cc1ccsc1Cn1c(C)ccc1C [Molecule 70, Cc1ccsc1Cn1c(C)ccc1C]
3. Cn1nc(-c2nc(-c3ccccc3)no2)c2c1CCN(C(=O)Cc1cccs1)C2 [Molecule 58]
4. O=C1CSC2=NC3=C(CCc4ccccc43)C(c3cccs3)N12 (centres unmarked) [Molecule 59, O=C1CSC2=NC3=C(C(N12)c1cccs1)CCc1c3cccc1]
5. Cn1nc(-c2nnc(-c3ccccc3F)o2)c2c1CCN(C(=O)c1ccccc1Cl)C2 [Molecule 34]
6. Cc1ccc(N2CCC(NC(=O)Cc3cccs3)C2=O)cc1C (centres unmarked) [Molecule 57, O=C(NC1CCN(C1=O)c1ccc(c(c1)C)C)Cc1cccs1]

1: 1.84; 2: 4; 3: 15; 4: 4; 5: -3.78; 6: 25

For the 6 compounds below, give their % inhibition T4 180' 20 values.
1. COc1ccc(/C=C/c2cc(C(=O)O)c3ccccc3n2)cc1 [Molecule 5, COc1ccc(cc1)/C=C/c1nc2ccccc2c(c1)C(=O)O]
2. Nc1cc(Oc2ccc(O)c(N)c2)ccc1O [KU0034728]
3. N#Cc1c(O)nc(N2CCCCC2)nc1-c1ccc2c(c1)OCO2 [KU0083146]
4. CCCc1ccc(Oc2coc3cc(OC)ccc3c2=O)cc1 [KU0193249]
5. COc1ccc(C2CC(c3ccc(Cl)cc3Cl)Nc3nc(N)nn32)cc1OC (centres unmarked) [Molecule 43]
6. Cc1cc2[nH]c(C(=O)Nc3ccc(F)cc3)c(CN3CCOCC3)c2s1 [Molecule 60]

[18, -11, -10, -10, -7, 13]
